Assayed system: T1, Recombinant human CD123 SP1 ECD-His tag protein (human, UniProt P26951 20-305)
T1 construct: bought from R&D Systems (#301-R3/CF); biotinylated for some assays; also called rhCD123 SP1; huCD123 ECD SP1
T1 sequence: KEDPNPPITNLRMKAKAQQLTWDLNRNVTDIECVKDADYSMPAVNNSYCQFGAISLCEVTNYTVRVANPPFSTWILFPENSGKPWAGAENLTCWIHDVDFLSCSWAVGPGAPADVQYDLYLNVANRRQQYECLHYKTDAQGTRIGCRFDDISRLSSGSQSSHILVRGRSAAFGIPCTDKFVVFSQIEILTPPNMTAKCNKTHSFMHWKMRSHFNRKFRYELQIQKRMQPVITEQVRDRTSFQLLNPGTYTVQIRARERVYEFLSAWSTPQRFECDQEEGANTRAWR
Assay: SPR Biacore 3000, captured Fab
Method: Kinetic studies were performed at 25° C. using a Biacore 3000 (BIAcore, Inc., now part of GE Healthcare). […] Data were performed in triplicate and analyzed by fitting association and dissociation phases at all concentrations (global fit) with a 1:1 binding model using the BIAevaluation software (BIAcore, Inc.). […]
Metric: kon (M⁻¹ s⁻¹)
Numbers only, in M⁻¹ s⁻¹.

Recorded kon, per entry:
{"Binder": "I3RB119 (Fab, V domains shown, also called Fab I3RB119; I3RB18 Fab) VH: EVQLVQSGAEVKKPGESLKISCKGSGYSFTSYWISWVRQMPGKGLEWMGIIDPSDSDTRYSPSFQGQVTISADKSISTAYLQWSSLKASDTAMYYCARGDGSTDLDYWGQGTLVTVSS VL: EIVLTQSPGTLSLSPGERATLSCRASQSVSSSYLAWYQQKPGQAPRLLIYGASSRATGIPDRFSGSGSGTDFTLTISRLEPEDFAVYYCQQDYGFPWTFGQGTKVEIK", "kon [M⁻¹ s⁻¹]": 493000}
{"Binder": "I3RB122 (Fab, V domains shown, also called Fab of I3RB37) VH: QVQLVQSGAEVKKPGSSVKVSCKASGGTFSSYAISWVRQAPGQGLEWMGGIIPIFGTANYAQKFQGRVTITADESTSTAYMELSSLRSEDTAVYYCARDKTDFPSRLDYWGQGTLVTVSS VL: DIQMTQSPSSLSASVGDRVTITCRASQSIATWLNWYQQKPGKAPKLLIYAASSLQSGVPSRFSGSGSGTDFTLTISSLQPEDFATYYCQQYITFPLTFGQGTKVEIK", "kon [M⁻¹ s⁻¹]": 393000}
{"Binder": "I3RB120 (Fab, V domains shown, also called Fab I3RB120; I3RB2 Fab) VH: EVQLLESGGGLVQPGGSLRLSCAASGFTFSGYWMHWVRQAPGKGLEWVSAIRSDGSSKYYADSVKGRFTISRDNSKNTLYLQMNSLRAEDTAVYYCAKDGVIEDTFDYWGQGTLVTVSS VL: EIVLTQSPATLSLSPGERATLSCRASQSVSSYLAWYQQKPGQAPRLLIYDASNRATGIPARFSGSGSGTDFTLTISSLEPEDFAVYYCQQRSNWPLTFGQGTKVEIK", "kon [M⁻¹ s⁻¹]": 357000}

Next up:
Look up and report measured kon for this entry: I3RB121 (Fab, V domains shown, also called Fab of I3RB35) VH: QVQLVQSGAEVKKPGSSVKVSCKASGGTFSSYAISWVRQAPGQGLEWMGGIIPIFGTANYAQKFQGRVTITADESTSTAYMELSSLRSEDTAVYYCARHLFWDAGPLDYWGQGTLVTVSS VL: DIQMTQSPSSLSASVGDRVTITCRASQSISSYLNWYQQKPGKAPKLLIYAASSLQSGVPSRFSGSGSGTDFTLTISSLQPEDFATYYCQQYFSPPYTFGQGTKVEIK
387000
